Molecular target: human BACE-2 (Homo sapiens (Human))
Sequence (Q9Y5Z0 63-473): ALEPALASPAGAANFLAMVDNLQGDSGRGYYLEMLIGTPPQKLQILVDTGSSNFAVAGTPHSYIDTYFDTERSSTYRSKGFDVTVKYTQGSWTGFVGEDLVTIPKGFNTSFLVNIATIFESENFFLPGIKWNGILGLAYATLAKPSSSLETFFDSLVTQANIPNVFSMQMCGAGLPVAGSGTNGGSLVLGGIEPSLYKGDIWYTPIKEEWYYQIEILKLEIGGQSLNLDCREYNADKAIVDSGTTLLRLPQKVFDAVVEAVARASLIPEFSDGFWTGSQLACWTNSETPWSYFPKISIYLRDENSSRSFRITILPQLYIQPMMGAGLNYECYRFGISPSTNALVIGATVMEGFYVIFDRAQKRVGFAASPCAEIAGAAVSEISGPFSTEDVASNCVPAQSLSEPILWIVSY
Experiment: Test 2: Inhibition of human BACE-2
Format: biochemical
Conditions: mean IC50, recombinant BACE-2, acetate buffer pH 4.5, fluorescence-quenched peptide substrate; read-out: BACE-2 IC50
Below, each of the compounds is paired with its reported IC50 value.

Here is how some compounds turned out for IC50.
C[C@@]1(c2cccc(NC(=O)c3ncc(OCC(F)(F)F)nc3N)n2)CO[C@@](C)(C(F)(F)F)C(N)=N1: > 10000 nM
Cc1cc(OC(F)F)cnc1C(=O)Nc1ccc(F)c([C@]2(C)CO[C@@](C)(C(F)(F)F)C(N)=N2)n1: 24 nM
Cc1cc(C#N)cnc1C(=O)Nc1cccc([C@]2(C)CO[C@@](C)(C(F)(F)F)C(N)=N2)n1: 20 nM

Continue with the compound presented below.
**Q:** Would you kindly share the measured IC50 for Cc1cc(C#N)cnc1C(=O)Nc1ccc(F)c([C@]2(C(F)F)COCC(N)=N2)n1 ?
**A:** 160 nM

###

Below, each of the compounds is paired with its reported pIC50 value.
Target: human BACE-1 (Homo sapiens (Human), UniProt P56817)
Sequence (P56817 46-457): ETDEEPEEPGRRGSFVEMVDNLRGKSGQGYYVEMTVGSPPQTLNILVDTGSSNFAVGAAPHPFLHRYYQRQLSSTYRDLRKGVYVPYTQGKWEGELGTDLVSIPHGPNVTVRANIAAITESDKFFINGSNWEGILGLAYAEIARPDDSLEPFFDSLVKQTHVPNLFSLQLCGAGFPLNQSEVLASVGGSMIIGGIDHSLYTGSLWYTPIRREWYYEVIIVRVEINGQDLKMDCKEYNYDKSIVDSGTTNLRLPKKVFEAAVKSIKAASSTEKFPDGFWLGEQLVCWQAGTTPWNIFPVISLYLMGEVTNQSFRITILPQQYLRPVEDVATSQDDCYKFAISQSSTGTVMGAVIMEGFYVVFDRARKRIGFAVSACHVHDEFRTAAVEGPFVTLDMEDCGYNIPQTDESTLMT
Assay: Test 1: Inhibition of human BACE-1
In simple prose, pIC50 is minus the logarithm base ten of a concentration in moles per litre.

[2H]c1nc(C(=O)Nc2cccc(C3(CF)COCC(N)=N3)n2)c(C([2H])([2H])[2H])c([2H])c1Cl (centres unmarked): 6.26

Continue with the compound presented below.
**Q:** Would you kindly share the measured pIC50 for [2H]c1nc(C(=O)Nc2cccc([C@]3(C)CO[C@@](C)(C(F)(F)F)C(N)=N3)n2)c(C([2H])([2H])[2H])c([2H])c1Cl ?
**A:** 7.51

###

Biological target: human BACE-1 (Homo sapiens (Human), UniProt P56817)
Assay: Test 1: Inhibition of human BACE-1
Conditions: read-out: BACE-1 IC50; mean IC50, recombinant BACE-1, acetate buffer pH 4.5, fluorescence-quenched peptide substrate
Below, each of the compounds is paired with its reported IC50 value.
Give the value, in units of µM, as a plain number.

Here is how some compounds turned out for IC50.
C[C@@]1(c2cc(NC(=O)c3ncc(OC(F)F)cc3Cl)ncc2F)CO[C@@](C)(C(F)(F)F)C(N)=N1: 0.41
C[C@@]1(c2cccc(NC(=O)c3ncc(C#N)cc3Cl)n2)CO[C@@](C)(C(F)(F)F)C(N)=N1: 0.01
COCCn1ccc2nc(C(=O)Nc3ccc(F)c([C@]4(C)CO[C@@](C)(C(F)(F)F)C(N)=N4)n3)c(N)nc21: 1.2
Cc1cc(OC(F)F)cnc1C(=O)Nc1ccc(F)c([C@]2(C)CO[C@@](C)(C(F)(F)F)C(N)=N2)n1: 0.026
Cc1cnc(C(=O)Nc2ccc(F)c([C@]3(C)CO[C@@](C)(C(F)(F)F)C(N)=N3)n2)cn1: 0.82
CC1(c2cccc(NC(=O)c3ccc(Br)cn3)n2)COCC(N)=N1 (racemic): 0.79

**Q:** Would you kindly share the measured IC50 for C[C@@]1(c2nc(NC(=O)c3nn(C(F)F)cc3Cl)ccc2F)CO[C@@](C)(C(F)(F)F)C(N)=N1 ?
**A:** 0.01

**Q:** Would you kindly share the measured IC50 for C[C@@]1(c2cccc(NC(=O)c3ncc(C#N)cc3N)n2)CO[C@@](C)(C(F)(F)F)C(N)=N1 ?
**A:** 0.043

**Q:** Would you kindly share the measured IC50 for C[C@@]1(c2cc(NC(=O)c3ncc(C#N)cc3Cl)ncc2F)CO[C@@](C)(C(F)(F)F)C(N)=N1 ?
**A:** 0.15
